Entries annotated with measured Tm
- Assay Overview: melting temperature; melt of duplexes
- Experimental Parameters: sodium 0.0675 M; strand 1 µM
State the answer as a number, implicitly in °C.

The examples below pair each entry with its known result.
>  <Substance>
CGACGTGCTAAATGTGCTG+CAGCACATCTTGCACGTCG ((((((((.(.((((((((+)))))))).).))))))))

>  <Measurement Label>
Tm

>  <Units Of Measure>
°C

>  <Assay Result>
50.1

$$$$
>  <Substance>
CGACGTGCTGGATGTGCTG+CAGCACATGTGGCACGTCG ((((((((...((((((((+))))))))...))))))))

>  <Measurement Label>
Tm

>  <Units Of Measure>
°C

>  <Assay Result>
52.6

$$$$
>  <Substance>
CGACGTGCGAAATGTGCTG+CAGCACATTGCGCACGTCG (((((((((.(((((((((+))))))))).)))))))))

>  <Measurement Label>
Tm

>  <Units Of Measure>
°C

>  <Assay Result>
60.2

$$$$

Tm in this record for CGACGTGCAGTATGTGCTG+CAGCACATGGTGCACGTCG (((((((((..((((((((+))))))))..))))))))) : 53.9

Tm in this record for CGACGTGCTATATGTGCTG+CAGCACATGACGCACGTCG ((((((((...((((((((+))))))))...)))))))) : 47.6

Tm in this record for CGACGTGCCCTATGTGCTG+CAGCACATTATGCACGTCG ((((((((...((((((((+))))))))...)))))))) : 48

Tm in this record for CGACGTGCGGAATGTGCTG+CAGCACATACTGCACGTCG ((((((((.(.((((((((+)))))))).).)))))))) : 54.3

Tm in this record for CGACGTGCGCGATGTGCTG+CAGCACATTAAGCACGTCG ((((((((...((((((((+))))))))...)))))))) : 55

Tm in this record for CGACGTGCTAGATGTGCTG+CAGCACATCATGCACGTCG ((((((((..(((((((((+)))))))))..)))))))) : 55.6

Tm in this record for CGACGTGCTTAATGTGCTG+CAGCACATCGCGCACGTCG ((((((((...((((((((+))))))))...)))))))) : 46.7

Tm in this record for CGACGTGCTAAATGTGCTG+CAGCACATCGTGCACGTCG ((((((((...((((((((+))))))))...)))))))) : 44.7

Tm in this record for CGACGTGCCTCATGTGCTG+CAGCACATGCCGCACGTCG ((((((((..(((((((((+)))))))))..)))))))) : 51.4

Tm in this record for CGACGTGCGACATGTGCTG+CAGCACATAATGCACGTCG ((((((((...((((((((+))))))))...)))))))) : 50.8

Tm in this record for CGACGTGCACGATGTGCTG+CAGCACATTAAGCACGTCG ((((((((...((((((((+))))))))...)))))))) : 46.5

Tm in this record for CGACGTGCTATATGTGCTG+CAGCACATAGGGCACGTCG ((((((((..(((((((((+)))))))))..)))))))) : 53.2

----------
Entries annotated with measured Tm
- Assay Overview: melting temperature; melt of duplexes
- Experimental Parameters: sodium 0.0675 M; strand 1 µM
State the answer as a number, implicitly in °C.

The examples below pair each entry with its known result.
>  <Substance>
CGACGTGCAATATGTGCTG+CAGCACATACGGCACGTCG ((((((((..(((((((((+)))))))))..))))))))

>  <Measurement Label>
Tm

>  <Units Of Measure>
°C

>  <Assay Result>
49.4

$$$$
>  <Substance>
CGACGTGCACCATGTGCTG+CAGCACATAACGCACGTCG ((((((((...((((((((+))))))))...))))))))

>  <Measurement Label>
Tm

>  <Units Of Measure>
°C

>  <Assay Result>
43.8

$$$$
>  <Substance>
CGACGTGCGTAATGTGCTG+CAGCACATGTCGCACGTCG (((((((((..((((((((+))))))))..)))))))))

>  <Measurement Label>
Tm

>  <Units Of Measure>
°C

>  <Assay Result>
56

$$$$

Tm in this record for CGACGTGCCCCATGTGCTG+CAGCACATACCGCACGTCG ((((((((...((((((((+))))))))...)))))))) : 45.8

Tm in this record for CGACGTGCTGTATGTGCTG+CAGCACATTACGCACGTCG ((((((((...((((((((+))))))))...)))))))) : 51

Tm in this record for CGACGTGCTCCATGTGCTG+CAGCACATTTAGCACGTCG (((((((((..((((((((+))))))))..))))))))) : 49.4

Tm in this record for CGACGTGCTATATGTGCTG+CAGCACATTTCGCACGTCG ((((((((.(.((((((((+)))))))).).)))))))) : 49

----------
Entries annotated with measured Tm
- Assay Overview: melting temperature; melt of duplexes
- Experimental Parameters: sodium 0.0675 M; strand 1 µM
State the answer as a number, implicitly in °C.

The examples below pair each entry with its known result.
>  <Substance>
CGACGTGCCCCATGTGCTG+CAGCACATCCCGCACGTCG ((((((((...((((((((+))))))))...))))))))

>  <Tm [°C]>
46.2

$$$$
>  <Substance>
CGACGTGCGTGATGTGCTG+CAGCACATGATGCACGTCG ((((((((.(.((((((((+)))))))).).))))))))

>  <Tm [°C]>
54

$$$$
>  <Substance>
CGACGTGCTATATGTGCTG+CAGCACATTGAGCACGTCG (((((((((..((((((((+))))))))..)))))))))

>  <Tm [°C]>
52.9

$$$$

Would you kindly look at the next entry?
Tm in this record for CGACGTGCAATATGTGCTG+CAGCACATTGAGCACGTCG ((((((((...((((((((+))))))))...)))))))) : 50.4

----------
- Assay Overview: melting temperature; melt of duplexes
- Experimental Parameters: sodium 0.0675 M; strand 1 µM
Returns: string. Value is True if measured Tm is below 50 °C, and False if it is greater than or equal to it.

See these solved cases before continuing.
>  <Substance>
CGACGTGCGCGATGTGCTG+CAGCACATGCTGCACGTCG ((((((((...((((((((+))))))))...))))))))

>  <Category>
False

$$$$
>  <Substance>
CGACGTGCAAGATGTGCTG+CAGCACATCTTGCACGTCG (((((((((((((((((((+)))))))))))))))))))

>  <Category>
False

$$$$
>  <Substance>
CGACGTGCGACATGTGCTG+CAGCACATCGAGCACGTCG ((((((((...((((((((+))))))))...))))))))

>  <Category>
False

$$$$
>  <Substance>
CGACGTGCCGAATGTGCTG+CAGCACATGTGGCACGTCG (((((((((..((((((((+))))))))..)))))))))

>  <Category>
False

$$$$

-- ask Determine whether this substance shows Tm lower than 50 °C (ties excluded): CGACGTGCGTAATGTGCTG+CAGCACATACAGCACGTCG ((((((((...((((((((+))))))))...))))))))
-- reply False

-- ask Determine whether this substance shows Tm lower than 50 °C (ties excluded): CGACGTGCCCTATGTGCTG+CAGCACATTCGGCACGTCG (((((((((..((((((((+))))))))..)))))))))
-- reply False

----------
- Assay Overview: melting temperature; melt of duplexes
- Experimental Parameters: sodium 0.0675 M; strand 1 µM
Measurement Label: Tm (°C)
State the answer as a number, implicitly in °C.

>  <Substance>
CGACGTGCGCCATGTGCTG+CAGCACATGAAGCACGTCG ((((((((..(((((((((+)))))))))..))))))))

>  <Tm / °C>
57.1

$$$$
>  <Substance>
CGACGTGCCACATGTGCTG+CAGCACATCAGGCACGTCG (((((((((..((((((((+))))))))..)))))))))

>  <Tm / °C>
53.2

$$$$
>  <Substance>
CGACGTGCGACATGTGCTG+CAGCACATTTTGCACGTCG ((((((((.(.((((((((+)))))))).).))))))))

>  <Tm / °C>
51.4

$$$$
>  <Substance>
CGACGTGCGCCATGTGCTG+CAGCACATTTAGCACGTCG ((((((((...((((((((+))))))))...))))))))

>  <Tm / °C>
50.1

$$$$

Tm in this record for CGACGTGCTCAATGTGCTG+CAGCACATATAGCACGTCG (((((((((..((((((((+))))))))..))))))))) : 51.5

Tm in this record for CGACGTGCAGGATGTGCTG+CAGCACATAAGGCACGTCG ((((((((...((((((((+))))))))...)))))))) : 50.8

Tm in this record for CGACGTGCTATATGTGCTG+CAGCACATGTGGCACGTCG ((((((((.(.((((((((+)))))))).).)))))))) : 53.6
